Data origin, for the record: ChEMBL document CHEMBL2169879

Record form. Attribute: pIC50. Fill in for each entry.
- Tested On: Glycylpeptide N-tetradecanoyltransferase 1 (Homo sapiens, UniProt P30419)
- Sequence (P30419 whole entry): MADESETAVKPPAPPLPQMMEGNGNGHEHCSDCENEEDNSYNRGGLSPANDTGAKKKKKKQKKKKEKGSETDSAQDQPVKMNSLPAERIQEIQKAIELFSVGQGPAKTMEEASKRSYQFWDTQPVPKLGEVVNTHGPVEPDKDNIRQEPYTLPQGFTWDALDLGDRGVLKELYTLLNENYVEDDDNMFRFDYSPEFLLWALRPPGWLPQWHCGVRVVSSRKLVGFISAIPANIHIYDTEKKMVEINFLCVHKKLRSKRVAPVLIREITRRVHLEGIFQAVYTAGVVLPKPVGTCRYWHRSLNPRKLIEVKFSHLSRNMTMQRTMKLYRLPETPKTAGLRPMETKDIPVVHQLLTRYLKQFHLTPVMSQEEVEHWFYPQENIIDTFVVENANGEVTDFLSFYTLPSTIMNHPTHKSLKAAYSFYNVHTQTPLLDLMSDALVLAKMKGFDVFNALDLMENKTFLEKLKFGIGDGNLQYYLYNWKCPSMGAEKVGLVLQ
pIC50: −log10 of the molar value.

Please review the entries below; each comes with its answer.
CCOC(=O)c1oc2cccc(OCCCNCc3cccnc3)c2c1C	< 3.00
Cc1c(C(=O)OCc2ccccc2)oc2cccc(OC3CCNCC3)c12	< 4.00
COc1cccc(COC(=O)c2oc3cccc(OC4CCNCC4)c3c2C)c1	4.35

Given the compound CCOC(=O)c1oc2cccc(OC3CCNCC3)c2c1C , what is its reported pIC50? < 3.70

----------
- Tested On: Glycylpeptide N-tetradecanoyltransferase (Plasmodium falciparum (isolate 3D7))
- Sequence (Q8ILW6 whole entry): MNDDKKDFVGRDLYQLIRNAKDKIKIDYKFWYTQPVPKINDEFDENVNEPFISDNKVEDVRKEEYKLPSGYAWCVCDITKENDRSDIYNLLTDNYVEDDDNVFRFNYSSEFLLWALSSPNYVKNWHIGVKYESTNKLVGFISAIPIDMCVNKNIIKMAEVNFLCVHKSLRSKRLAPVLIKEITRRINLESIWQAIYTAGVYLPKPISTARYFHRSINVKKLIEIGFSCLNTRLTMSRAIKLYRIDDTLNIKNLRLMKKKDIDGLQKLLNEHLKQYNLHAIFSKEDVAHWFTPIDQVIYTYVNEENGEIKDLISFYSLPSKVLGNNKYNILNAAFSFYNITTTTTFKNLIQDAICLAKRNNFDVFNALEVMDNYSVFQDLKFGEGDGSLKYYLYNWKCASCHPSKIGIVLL
- Assay Info: Inhibition of Plasmodium falciparum N-myristoyltransferase using [3H]-myristoyl-CoA and GLYVSRLFNRLFQKK(Biotin)-NH2 as substrate after 30 mins scintillation proximity assay
Experimental Readout: pIC50
One number for each entry, as −log10 of the molar value.

Please review the entries below; each comes with its answer.
Cc1c(/C=C\c2ccccc2)oc2cccc(OC3CCNCC3)c12	4.14
Cc1c(C(=O)OCC2CCCCC2)oc2cccc(OC3CCNCC3)c12	5.01
Cc1c(C(=O)OCCc2ccccc2)oc2cccc(OC3CCNCC3)c12	5.39
Cc1c(C(=O)OCCCc2ccccc2)oc2cccc(OC3CCNCC3)c12	4.44

Look up pIC50 for the entries below, preserving their order.
1. Cc1c(CCc2ccccc2)oc2cccc(OC3CCNCC3)c12
2. Cc1c(C(=O)NCc2ccccc2)oc2cccc(OC3CCNCC3)c12
3. Cc1c(C(=O)Oc2ccccc2)oc2cccc(OC3CCNCC3)c12
4. Cc1c(C(=O)OCc2cccc3ccccc23)oc2cccc(OC3CCNCC3)c12

1: 3.88; 2: 4.89; 3: 4.61; 4: 5.85
